system_under_test: T1, maltose-binding protein (MBP)-tagged ENL AHD domain (489-559) (human, UniProt Q03111 489-559)
T1 construct: human ENL, AHD domain, residues 489-559; cDNA synthesized by Genscript, in pMAL c5X; No cleavage of MBP is described; source: E. coli BL21(DE3), purified (amylose resin, size exclusion)
T1 sequence (looked up): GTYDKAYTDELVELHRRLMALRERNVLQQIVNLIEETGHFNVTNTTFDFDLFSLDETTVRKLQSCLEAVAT
assay_info: fluorescence polarisation; direct titration: fluorescein-labeled peptide 2 nM, increasing concentration of AF9/ENL protein; 20 mM HEPES, pH 7.5, 0.01% Triton X-100; 1 h incubation
study_conditions: both partners purified
No end group written: not given here. *: point of attachment. FITC = O=C1OC2(c3ccc(O)cc3Oc3cc(O)ccc32)c2ccc(NC(=S)*)cc21; Ahx = NCCCCCC(=O)O
parameter_measured: Kd (nM)

{"binder": "{FITC-Ahx}-NKLPVSIPLASVVLPSRAERARST (Used in the FP assay; also called fluorescein-labeled DOT1L peptide; source: synthetic peptide, bought: Genscript) [FITC-AHX-DOT1L peptide]", "readout_units": "nM", "Kd": 640}

1. {FITC-Ahx}-YPLIVKIDLNLLTRIPGKPYK (Used in the FP assay; source: synthetic peptide, bought: Genscript) [FITC-AHX-AFF4 peptide]
2. {FITC-Ahx}-QSLMVKITLDLLSRIPQPPGK (Used in the FP assay; source: synthetic peptide, bought: Genscript) [FITC-AHX-AF4 peptide]
Exercise: Looking only at measured Kd, which entry is lower, 1 or 2 ? Return value: the label identifying the chosen record.
Solution: 2
(2: 9.6 nM, 1: 31 nM)

From: paper PMC8344022
